// provenance: paper PMC7413074

Experiment: in vivo
Conditions: female, CD1-nude, mouse, ip, 130 mg/kg
Readout label: AUC (µM·h)
Please give a number only; it is taken to be in µM·h.

What measured AUC goes with O=P1(N(CCCl)CCCl)NCCCO1 (stereo not shown) [cyclophosphamide] ?
113

###

Assay: in vivo
Conditions: CD1-nude, mouse, Kp,uu (unbound ECF to plasma partition coefficient), mean (SD)
Readout label: Kp uu
Just the number.

Kp uu lookup needed for O=P1(N(CCCl)CCCl)NCCCO1 (stereo not shown) [cyclophosphamide] , thanks.
0.22
